nuclei count listing for selected molecules.
# testDetails: inhibitors of E-selectin induction by TNFa, primary screen, imaging, HUVEC, immunofluorescence, MLSMR starter and 10KST1 sets (AID 487);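 for nuclei count: 100% = median nuclei count of all wells on the same plate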
# experimentalContext: HUVEC TNFalpha-induced E-selectin immunofluorescence imaging, at 2 µM; measured here: cell number, toxicity
Field: numeric (%). Do not append units.

Request: Reported nuclei count for CCCc1cc(Nc2c(C)n(C)n(-c3ccccc3)c2=O)n2c(nc3ccccc32)c1C#N : what is it?
Response: 134

Request: Reported nuclei count for O=C(O)CC(NC(=O)c1ccccc1NC(=O)c1ccccc1)C(=O)O (stereo not given) : what is it?
Response: 90

Request: Reported nuclei count for COc1ccc(-c2ccc(-c3noc(-c4ccccc4)n3)c(OC)n2)cc1 : what is it?
Response: 88.8

###

# testDetails: inhibitors of E-selectin induction by TNFa, primary screen, imaging, HUVEC, immunofluorescence, MLSMR starter and 10KST1 sets (AID 487);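 for inhibition: signal is fraction of cell area covered by stained E-selectin grains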
# experimentalContext: HUVEC TNFalpha-induced E-selectin immunofluorescence imaging, at 2 µM; stronger effect = higher value
endpointLabel: inhibition (%)
Field: numeric (%). Do not append units.

compound | inhibition [%]
O=C(c1ccco1)N1CCN(c2ccc(Cl)cc2)CC1 | 12.5

Request: Reported inhibition for O=C(CN1CCN(c2cccc(Cl)c2)CC1)N1CCCC1 : what is it?
Response: -69

Request: Reported inhibition for O=C(CSc1nnnn1-c1ccccc1Cl)Nc1ccc2c(c1)OCCO2 : what is it?
Response: -55

Request: Reported inhibition for COc1ccc(CN2C(=O)[C@@H]3C(c4ccc(F)cc4)=NO[C@@H]3C2=O)cc1 : what is it?
Response: -34.5

Request: Reported inhibition for O=C(O)c1ccccc1S(=O)(=O)NCC(O)COc1ccc(Br)cc1 (configuration not stated) : what is it?
Response: 31.4

Request: Reported inhibition for Cc1cc(Cl)c(S(=O)(=O)Nc2ccc3c(c2)OCCO3)cc1OCC(N)=O : what is it?
Response: -79.1

###

fluorescence slope listing for selected molecules.
# assayedTarget: Voltage-gated potassium channel subunit beta-2 (Rattus norvegicus)
# testDetails: KvBeta enzyme negative modulators, primary screen, biochemical, NADPH fluorescence (AID 622);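 note: slope of raw intensity against log time taken from 70 to 1610 s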
# experimentalContext: recombinant KvBeta, 4-cyanobenzaldehyde reduction, at 10 µM, stronger effect = higher value
Calls of active or inactive are those of the source.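 Rule for the calls: active = fluorescence slope higher than the sample average by over 3 SD (cut at about -0.22 in these data, passing the limit was not always enough); inactive = the rest.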

molecule | fluorescence slope
COc1ccc(C2C(C#N)=C(C)NC3=C2C(=O)c2ccccc23)cc1 (stereo unspecified) | -0.5 (inactive)
Cc1ccc(C2=N/C(=C/N3CCOCC3)C(=O)O2)cc1 | -0.512 (inactive)
COc1ccc(N2C(=O)CC(N3CCCC4CCCCC43)C2=O)cc1 (stereo unspecified) | -0.423 (inactive)
CCOC(=O)c1c(C)[nH]c(C(=O)CSc2nc3ccccc3o2)c1C | -0.3 (inactive)

Request: Notebook: pull reported fluorescence slope for Voltage-gated potassium channel subunit beta-2 (Rattus norvegicus), entry COc1ccccc1NC(=O)CSc1nnc(-c2ccc(NC(C)=O)cc2)n1C
Response: -0.46 (inactive)

Request: Notebook: pull reported fluorescence slope for Voltage-gated potassium channel subunit beta-2 (Rattus norvegicus), entry Cc1ccc(N2C(=O)CC(Cn3nc(C)cc3C)C2=O)cc1 (stereo unspecified)
Response: -0.387 (inactive)

Request: Notebook: pull reported fluorescence slope for Voltage-gated potassium channel subunit beta-2 (Rattus norvegicus), entry CCN(CC)CCN1C(=O)C(=O)/C(=C(/O)c2c(C)[nH]c(C(=O)OC)c2C)C1c1ccccc1 (stereo unspecified)
Response: -0.485 (inactive)

Request: Notebook: pull reported fluorescence slope for Voltage-gated potassium channel subunit beta-2 (Rattus norvegicus), entry C=CCSc1nc(N)c2c(C)c(C)sc2n1
Response: -0.404 (inactive)

###

# testDetails: inhibitors of E-selectin induction by TNFa, primary screen, imaging, HUVEC, immunofluorescence, MLSMR starter and 10KST1 sets (AID 487);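 for inhibition: signal is fraction of cell area covered by stained E-selectin grains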
# experimentalContext: HUVEC TNFalpha-induced E-selectin immunofluorescence imaging, at 2 µM; stronger effect = higher value
inhibition listing for selected molecules.
Field: numeric (%). Do not append units.

molecule | inhibition (%)
Cc1cc(NS(=O)(=O)c2ccccc2)no1 | -72.8
CC1(C)Cc2c(c(N3CCCCC3)[nH]c(=S)c2C#N)CS1 | -103
O=C(C1CCCN(S(=O)(=O)c2ccc(Br)s2)C1)N1CCCCCC1 (stereo not given) | 30.6

Request: Reported inhibition for CCCc1cc(C(=O)Nc2ccccc2SC)no1 : what is it?
Response: -35.7

Request: Reported inhibition for CCOC(=O)C1=C(CS(=O)(=O)c2ccc(F)c(C)c2)NC(=O)NC1c1ccc(O)c(O)c1 (stereo not given) : what is it?
Response: -35.7

Request: Reported inhibition for COc1ccc2[nH]c(C)c(C(=O)CN3CCOCC3)c2c1 : what is it?
Response: -85.7

Request: Reported inhibition for COCCCn1c(C)nc2c(c1=O)c1nc3ccccc3nc1n2CCc1ccccc1 : what is it?
Response: 18.7

Request: Reported inhibition for COC(=O)c1cc(OC)c(OC)cc1NC(=O)c1ccc(Br)o1 : what is it?
Response: -91.3

Request: Reported inhibition for CN(C)c1cccc2c(S(=O)(=O)N3CCOCC3)cccc12 : what is it?
Response: -24.7

Request: Reported inhibition for COc1ccccc1CNS(=O)(=O)c1ccc(NC(C)=O)cc1 : what is it?
Response: -57.3

Request: Reported inhibition for NC(=O)C(c1ccccc1)C1CCCC1 (stereo not given) : what is it?
Response: -33.8

Request: Reported inhibition for O=C(CSc1nccn1Cc1ccccc1)Nc1nccs1 : what is it?
Response: -16.7

Request: Reported inhibition for CCN1C(=O)c2ccccc2S(=O)c2ccc(C(=O)NC3CC3)cc21 (stereo not given) : what is it?
Response: 6.3

Request: Reported inhibition for O=C(O)CCc1ccc(-c2cccs2)o1 : what is it?
Response: -23.1

Request: Reported inhibition for Cn1c(=O)c2ncn(CC(=O)NCCOc3ccc(C(C)(C)C)cc3)c2n(C)c1=O : what is it?
Response: -15.3

###

# testDetails: inhibitors of TNFa-induced NFkB p65 translocation, primary screen, imaging, HUVEC, MLSMR starter and 10KST1 sets (AID 438);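 note: compound added about 3h40 before a 20 min TNFalpha stimulation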
# experimentalContext: HUVEC TNFa-induced p65 nuclear translocation; measured here: nuclei count (cytotoxicity indicator), at 2.08 µM
endpointLabel: cell count

Here's what some known entries look like.
compound | cell count
C#CC1CN(Cc2ccccc2)CC(C#C)N1C (centres undefined) | 690
Cn1c(=O)c2c(nc(Br)n2Cc2ccc3ccccc3c2)n(C)c1=O | 623
COc1ccc(CCNC(=O)CCN2C(=O)C3CC=CCC3C2=O)cc1OC (centres undefined) | 308

With those in mind, consider the next compound.
Request: Reported cell count for CCOC(=O)C(NC(C)=O)(Nc1ccc(S(=O)(=O)Nc2nccs2)cc1)C(F)(F)F (centres undefined) : what is it?
Response: 523

###

# testDetails: inhibitors of E-selectin induction by TNFa, primary screen, imaging, HUVEC, immunofluorescence, MLSMR starter and 10KST1 sets (AID 487);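 for inhibition: signal is fraction of cell area covered by stained E-selectin grains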
# experimentalContext: HUVEC TNFalpha-induced E-selectin immunofluorescence imaging, at 2 µM; stronger effect = higher value
endpointLabel: inhibition (%)
Field: numeric (%). Do not append units.

Request: Reported inhibition for CCOC(=O)N1CCN(S(=O)(=O)c2cc(Cl)ccc2Cl)CC1 : what is it?
Response: -221

Request: Reported inhibition for COCCNc1ncnc2c1cnn2-c1ccc(Cl)cc1 : what is it?
Response: 11.8

Request: Reported inhibition for CCOC(=O)c1c(C)[nH]c(C(=O)CSc2nc3ccccc3o2)c1C : what is it?
Response: 28.7

###

# testDetails: inhibitors of TNFa-induced NFkB p65 translocation, primary screen, imaging, HUVEC, MLSMR starter and 10KST1 sets (AID 438);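 note: compound added about 3h40 before a 20 min TNFalpha stimulation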;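 for inhibition: signal is the nuclear over cytoplasmic p65 intensity ratio per well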
# experimentalContext: HUVEC TNFa-induced p65 nuclear translocation; at 2 µM, stronger effect = higher value, 0% TNFa-plus-vehicle, 100% no-TNFa wells
endpointLabel: inhibition (%)
Field: numeric (%). Do not append units.

Here's what some known entries look like.
compound | inhibition [%]
COc1ccc(C(=O)NCc2nnc(SCC(=O)Nc3cc(C)cc(C)c3)o2)cc1OC | -14.4
CN1C(=O)C2(c3ccccc31)C1CCCC=C1C(C#N)=C(N)C2(C#N)C#N (centres undefined) | -7
CCCn1cc(C(CC(=O)O)C(=O)O)c2ccccc21 (centres undefined) | 0.2
CCCC(=O)Nc1ccccc1-c1nnn(CC(=O)Nc2ccc(OC)cc2)n1 | 21.5
O=C(COc1ccccc1)NCC(c1cccs1)N1CCOCC1 (centres undefined) | 9

Request: Reported inhibition for Cc1ccc(-n2nnnc2SCC(=O)Nc2c(C)n(C)n(-c3ccccc3)c2=O)cc1 : what is it?
Response: -1.1

Request: Reported inhibition for COc1ccc(CN2C(=O)[C@@H]3C(c4ccc(F)cc4)=NO[C@@H]3C2=O)cc1 : what is it?
Response: -10.5

Request: Reported inhibition for CC(=O)c1ccc(NC(=O)C2CCN(S(=O)(=O)c3cccc4cccnc34)CC2)cc1 : what is it?
Response: 8.3

Request: Reported inhibition for O=C(Cc1ccc(Cl)cc1)Nc1cccc(-c2nnc(-c3ccco3)o2)c1 : what is it?
Response: -4

Request: Reported inhibition for N#Cc1nc(-c2ccc(F)cc2)oc1N1CCCC1 : what is it?
Response: -7.6

Request: Reported inhibition for CC(O)(C#CCN1CCOCC1)c1ccccc1 (centres undefined) : what is it?
Response: 1.5

Request: Reported inhibition for CC(C)COC(=O)N(C)c1ccc(C(O)(C(F)(F)F)C(F)(F)F)cc1 : what is it?
Response: -12.4

Request: Reported inhibition for COC(=O)[C@H]1CCCN1C(=O)Nc1cccc(Oc2c(F)c(F)c(F)c(F)c2F)c1 : what is it?
Response: -2.1

Request: Reported inhibition for Cc1cc(CC(=O)O)c(C)cc1CC(=O)O : what is it?
Response: -9.1
